Test system: Klebsiella pneumoniae
Assay Procedure: Minimum inhibitory concentration was measured against Klebsiella pneumoniae ATCC 13883
Format: functional
Measurement Label: MIC (µg/mL)
One number for each entry, in µg/mL.

Study these solved cases before continuing.
- Compound: "CC(=O)NCC1OC(OC2C(O)C(OC3OC(CN)C(O)C(O)C3N)C(N)CC2(N)CO)C(O)C(N)C1O (stereo not given)"
  Measured On: "Klebsiella pneumoniae"
  Units: "µg/mL"
  MIC: 2
- Compound: "[N-]=[N+]=NCC1OC(OC2C(O)C(OC3OC(CN)C(O)C(O)C3N)C(N)CC2(N)CO)C(O)C(N)C1O (stereo not given)"
  Measured On: "Klebsiella pneumoniae"
  Units: "µg/mL"
  MIC: 0.5

// each compound listed below needs its MIC
1. NCC1OC(OC2C(N)CC(N)(CO)C(OC3OC(CCl)C(O)C(N)C3O)C2O)C(N)C(O)C1O (stereo not given)
2. NC[C@H]1O[C@H](O[C@H]2[C@H](O)[C@@H](O[C@H]3O[C@H](CO)[C@@H](O)[C@H](N)[C@H]3O)[C@H](N)C[C@@H]2N)[C@H](N)[C@@H](O)[C@@H]1O
3. NCC1OC(OC2C(N)CC(N)(CO)C(OC3OC(CO)C(O)C(N)C3O)C2O)C(N)C(O)C1O (stereo not given)

0.5
0.25
0.25

---

I'd be grateful if you could share measured MIC for these entries.
Tested on: Enterobacter cloacae
Assay Procedure: Minimum inhibitory concentration was measured against Enterobacter cloacae ATCC 23355
Format: functional
Give bare numbers, in µg/mL.

These solved cases illustrate the format of a correct answer.
- Compound: "NCC1OC(OC2C(N)CC(N)(CO)C(OC3OC(CO)C(O)C(N)C3O)C2O)C(N)C(O)C1O (stereo unspecified)"
  Measurement Label: "MIC"
  Units: "µg/mL"
  Test Value: 0.25
- Compound: "[N-]=[N+]=NCC1OC(OC2C(O)C(OC3OC(CN)C(O)C(O)C3N)C(N)CC2(N)CO)C(O)C(N)C1O (stereo unspecified)"
  Measurement Label: "MIC"
  Units: "µg/mL"
  Test Value: 0.25
- Compound: "NC[C@H]1O[C@H](O[C@H]2[C@H](O)[C@@H](O[C@H]3O[C@H](CO)[C@@H](O)[C@H](N)[C@H]3O)[C@H](N)C[C@@H]2N)[C@H](N)[C@@H](O)[C@@H]1O"
  Measurement Label: "MIC"
  Units: "µg/mL"
  Test Value: 0.25
- Compound: "NCC[C@H](O)C(=O)N[C@@H]1C[C@H](N)[C@@H](O[C@H]2O[C@H](CN)[C@@H](O)[C@H](O)[C@H]2O)[C@H](O)[C@H]1O[C@H]1O[C@H](CO)[C@@H](O)[C@H](N)[C@H]1O"
  Measurement Label: "MIC"
  Units: "µg/mL"
  Test Value: 1
- Compound: "CC(=O)NCC1OC(OC2C(O)C(OC3OC(CN)C(O)C(O)C3N)C(N)CC2(N)CO)C(O)C(N)C1O (stereo unspecified)"
  Measurement Label: "MIC"
  Units: "µg/mL"
  Test Value: 0.25

Dear colleague, I am looking for the recorded MIC of the following compound: NCC1OC(OC2C(N)CC(N)(CO)C(OC3OC(CCl)C(O)C(N)C3O)C2O)C(N)C(O)C1O (stereo unspecified)
0.25

---

System: Escherichia coli
Assay Procedure: Minimum inhibitory concentration was measured against Escherichia coli ATCC 25992.
Assay type: functional
Measurement Label: MIC (µg/mL)
Numbers only, in µg/mL.

Use the examples below as a reference point.
- Molecule: "NCC[C@H](O)C(=O)N[C@@H]1C[C@H](N)[C@@H](O[C@H]2O[C@H](CN)[C@@H](O)[C@H](O)[C@H]2O)[C@H](O)[C@H]1O[C@H]1O[C@H](CO)[C@@H](O)[C@H](N)[C@H]1O"
  Units: "µg/mL"
  MIC: 4
- Molecule: "NC[C@H]1O[C@H](O[C@H]2[C@H](O)[C@@H](O[C@H]3O[C@H](CO)[C@@H](O)[C@H](N)[C@H]3O)[C@H](N)C[C@@H]2N)[C@H](N)[C@@H](O)[C@@H]1O"
  Units: "µg/mL"
  MIC: 1
- Molecule: "CC(=O)NCC1OC(OC2C(O)C(OC3OC(CN)C(O)C(O)C3N)C(N)CC2(N)CO)C(O)C(N)C1O (stereo unspecified)"
  Units: "µg/mL"
  MIC: 4
- Molecule: "NCC1OC(OC2C(N)CC(N)(CO)C(OC3OC(CCl)C(O)C(N)C3O)C2O)C(N)C(O)C1O (stereo unspecified)"
  Units: "µg/mL"
  MIC: 1
- Molecule: "NCC1OC(OC2C(N)CC(N)(CO)C(OC3OC(CO)C(O)C(N)C3O)C2O)C(N)C(O)C1O (stereo unspecified)"
  Units: "µg/mL"
  MIC: 0.5

Next, consider the following molecule.
Quick one: MIC of [N-]=[N+]=NCC1OC(OC2C(O)C(OC3OC(CN)C(O)C(O)C3N)C(N)CC2(N)CO)C(O)C(N)C1O (stereo unspecified) ?
1

---

Field: MIC. Provide a value for each of the compounds that follow.
System: Serratia marcescens
Assay Procedure: Minimum inhibitory concentration was measured against Serratia marcescens ATCC 8100
Assay type: functional
Answers are plain numbers, in µg/mL.

Here are 3 compounds together with their reported answers.
- Compound: "NCC1OC(OC2C(N)CC(N)(CO)C(OC3OC(CCl)C(O)C(N)C3O)C2O)C(N)C(O)C1O (stereo not given)"
  MIC [µg/mL]: 2
- Compound: "NCC1OC(OC2C(N)CC(N)(CO)C(OC3OC(CO)C(O)C(N)C3O)C2O)C(N)C(O)C1O (stereo not given)"
  MIC [µg/mL]: 1
- Compound: "NC[C@H]1O[C@H](O[C@H]2[C@H](O)[C@@H](O[C@H]3O[C@H](CO)[C@@H](O)[C@H](N)[C@H]3O)[C@H](N)C[C@@H]2N)[C@H](N)[C@@H](O)[C@@H]1O"
  MIC [µg/mL]: 1

The following compounds each have a reported value; give each one's MIC.
1. [N-]=[N+]=NCC1OC(OC2C(O)C(OC3OC(CN)C(O)C(O)C3N)C(N)CC2(N)CO)C(O)C(N)C1O (stereo not given)
2. CC(=O)NCC1OC(OC2C(O)C(OC3OC(CN)C(O)C(O)C3N)C(N)CC2(N)CO)C(O)C(N)C1O (stereo not given)

1. 2
2. 16
